Origin of values: patent US7118895B2

test system: Crude diglycosidase; experiment: Examination of substrate concentration in the conversion into isoflavone aglycons by diglycosidase using soybean materials; type: biochemical, Penicillium multicolor IAM7153; conditions: soymilk, substrate concentration 20%, heat treatment of enzyme yes, reaction time 6 h;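 also: percent of the isoflavone family total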
Label condition met for high-side Decomposition efficiency: ratio of each glycoside/aglycon within its isoflavone family (at or above 40%) and condition not met for low-side Decomposition efficiency: ratio of each glycoside/aglycon within its isoflavone family (below it).

- test smiles: "O=C(O)CC(=O)OC[C@H]1O[C@@H](Oc2cc(O)c3c(=O)c(-c4ccc(O)cc4)coc3c2)[C@H](O)[C@@H](O)[C@@H]1O"
  target system: "Crude diglycosidase"
  label class: "condition met"

Check the entry COc1cc2c(=O)c(-c3ccc(O)cc3)coc2cc1O[C@@H]1O[C@H](COC(=O)CC(=O)O)[C@@H](O)[C@H](O)[C@H]1O : does Decomposition efficiency: ratio of each glycoside/aglycon within its isoflavone family equal or exceed 40%?
condition not met

Exam item: decide whether the reported Decomposition efficiency: ratio of each glycoside/aglycon within its isoflavone family for O=c1c(-c2ccc(O)cc2)coc2cc(O[C@@H]3O[C@H](CO)[C@@H](O)[C@H](O)[C@H]3O)cc(O)c12 is at least 40%.
condition not met

Textbook exercise: given the entry CC(=O)OC[C@H]1O[C@@H](Oc2cc(O)c3c(=O)c(-c4ccc(O)cc4)coc3c2)[C@H](O)[C@@H](O)[C@@H]1O , state whether its Decomposition efficiency: ratio of each glycoside/aglycon within its isoflavone family is greater than or equal to 40%.
condition not met
